Measurement target: Transcriptional activator protein LuxR (Aliivibrio fischeri, UniProt P12746)
Method description: Inhibition of Aliivibrio fischeri LuxR by luminescence method
Endpoint: IC50

Look at this molecule and give its reported IC50. CCCCCCCCCC(=O)N[C@H]1CCSC1=O
130 nM

----------
Measurement target: Transcriptional activator protein LuxR (Aliivibrio fischeri)
Sequence (P12746 whole entry): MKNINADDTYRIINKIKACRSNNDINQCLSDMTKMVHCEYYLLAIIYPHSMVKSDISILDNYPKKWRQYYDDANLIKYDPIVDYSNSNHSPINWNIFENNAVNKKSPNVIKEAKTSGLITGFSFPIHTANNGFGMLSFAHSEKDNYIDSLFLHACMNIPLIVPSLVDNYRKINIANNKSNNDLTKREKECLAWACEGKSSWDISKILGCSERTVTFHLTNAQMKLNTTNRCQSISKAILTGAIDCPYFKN
Method description: Antagonist activity at Aliivibrio fischeri LuxR by luminescence method
Endpoint: pIC50
Scale for pIC50: -log10 of concentration given in mol/L; no unit attached.

Examples from the recorded data:
Please state recorded pIC50 (tested on Transcriptional activator protein LuxR (Aliivibrio fischeri)) of CCCCCCCCS(=O)(=O)NC1CCOC1=O (stereo not drawn)
5.00

Subsequent entry: O=C(CC(=O)NC1CCOC1=O)Cc1ccc(Br)cc1 (stereo not drawn)
5.70

Subsequent entry: CCCCCCS(=O)(=O)NC1CCOC1=O (stereo not drawn)
5.19

Subsequent entry: O=C(CC(=O)NC1CCOC1=O)Cc1ccc(C(F)(F)F)cc1 (stereo not drawn)
5.00

Subsequent entry: CCCCCS(=O)(=O)NC1CCOC1=O (stereo not drawn)
5.70

Others:
Please state recorded pIC50 (tested on Transcriptional activator protein LuxR (Aliivibrio fischeri)) of CCCCCCCS(=O)(=O)NC1CCOC1=O (stereo not drawn)
5.05

Subsequent entry: O=C(CC(=O)NC1CCOC1=O)Cc1ccc(Cl)cc1 (stereo not drawn)
5.52

Subsequent entry: COc1ccc(CC(=O)CC(=O)NC2CCOC2=O)cc1 (stereo not drawn)
5.52

Subsequent entry: O=C1OCCC1NS(=O)(=O)CCc1ccccc1 (stereo not drawn)
5.52

Subsequent entry: O=C(CC(=O)NC1CCOC1=O)Cc1ccccc1 (stereo not drawn)
5.70

Subsequent entry: O=C1OCCC1NS(=O)(=O)Cc1ccccc1 (stereo not drawn)
4.40
